test: chemical recovery from spiked human plasma; higher = better extraction; conditions: pooled human plasma; extraction method: solvent precipitation (ACN + hexane)
Known chemical recovery of a selection of molecules
# number only, unit % dropped from output

Field: example entries. Status: answers known.
{"columns": ["molecule", "chemical recovery (%)"],
 "data": [
  ["CCN(CC)c1nc(C)cc(OP(=S)(OC)OC)n1", 68.8],
  ["CCCCCC(CCC)COC(=O)c1ccccc1C(=O)OCC(CCC)CCCCC (configuration not stated) [Bis(2-propylheptyl)-phthalate]", 70.9]
]}

Which measured chemical recovery value corresponds to Cc1cc(-c2ccc(N)c(C)c2)ccc1N ? 61.7

Which measured chemical recovery value corresponds to CC[N+](CC)(CC(=O)Nc1c(C)cccc1C)Cc1ccccc1 ? 71.9

Which measured chemical recovery value corresponds to Cc1nnc(-c2ccccc2)c(=O)n1N ? 70.3

Which measured chemical recovery value corresponds to CCNc1nc(Cl)nc(NCC)n1 ? 60.6

Which measured chemical recovery value corresponds to CC(C)NCC(O)COc1cccc2ccccc12 (configuration not stated) ? 71.9

====

test: chemical recovery from spiked human plasma; higher = better extraction; settings: pooled human plasma; extraction method: SPE only (HLB 96-well)
endpoint: chemical recovery (%)
# number only, unit % dropped from output

Field: example entries. Status: answers known.
{"columns": ["molecule", "chemical recovery, %"],
 "data": [
  ["COP(=S)(OC)Oc1ccc(SC)c(C)c1 [Fenthion]", 59.7],
  ["O=C(NC(=O)c1c(F)cccc1F)Nc1ccc(Cl)cc1 [Diflubenzuron]", 29.8],
  ["CC(C(=O)O)c1cccc(C(=O)c2ccccc2)c1 (configuration not stated) [Ketoprofen]", 46.1],
  ["O=C(O)C(F)(F)C(F)(F)C(F)(F)F [Perfluorobutanoic acid]", 23.3],
  ["Cc1nnc(-c2ccccc2)c(=O)[nH]1 [Metamitron-desamino]", 49.5],
  ["O=P(OCCCl)(OCCCl)OCCCl [Tris(2-chloroethyl)phosphate]", 47.4],
  ["CC=CC(=O)N(CC)c1ccccc1C [Crotamiton]", 37],
  ["COc1cc(NC(=O)CC(C)=O)c(OC)cc1Cl [4'-Chloro-2',5'-dimethoxyacetoacetanilide]", 43.2],
  ["CON(C)C(=O)Nc1ccc(Cl)c(Cl)c1 [Linuron]", 50.1],
  ["CCC(C)n1c(=O)[nH]c(C)c(Br)c1=O (configuration not stated) [Bromacil]", 49.3]
]}

Which measured chemical recovery value corresponds to CCC(Cc1ccccc1)(C(=O)c1ccc(N2CCOCC2)cc1)N(C)C (configuration not stated) [Irgacure-369] ? 36.8

Which measured chemical recovery value corresponds to O=C(O)CCCOc1ccc(Cl)cc1Cl [2,4-DB] ? 50.7

====

test: chemical recovery from spiked human plasma; higher = better extraction; settings: pooled human plasma; extraction method: SPE only (HLB 96-well), PES comparison experiment
endpoint: chemical recovery (%)
# number only, unit % dropped from output

Which measured chemical recovery value corresponds to CC[N+](CC)(CC(=O)Nc1c(C)cccc1C)Cc1ccccc1 [Denatonium] ? 49.9

Which measured chemical recovery value corresponds to COCCOCCOCCOCCOC [Tetraglyme] ? 39.7

Which measured chemical recovery value corresponds to CN/C(=N\[N+](=O)[O-])NCc1cnc(Cl)s1 [Clothianidin] ? 50.9

====

assay: chemical recovery by SPE of plasma after PDMS sampling; higher = better extraction; conditions: pooled human plasma; extraction method: HLB SPE of plasma after PES; equilibration time (d): 3
endpoint: chemical recovery by SPE of plasma (%)
# number only, unit % dropped from output

{"columns": ["compound", "measurementUnits", "quantitativeReadout"],
 "data": [
  ["CNC(=O)CSP(=O)(OC)OC [Omethoate]", "%", 13.5],
  ["C[C@]12CC[C@H]3[C@@H](CCC4=CC(=O)CC[C@@]43C)[C@@H]1CC[C@@H]2O", "%", 14.5]
]}

# ---- query compound ----
Which measured chemical recovery by SPE of plasma value corresponds to CN(C)C(=O)Nc1ccc(Oc2ccc(Cl)cc2)cc1 ? 7.37

====

assay: chemical recovery from spiked human plasma; higher = better extraction; conditions: pooled human plasma; extraction method: PES+SPE (3 d PDMS equilibration then HLB SPE)
Known chemical recovery of a selection of molecules
# number only, unit % dropped from output

{"columns": ["molecule", "endpoint", "quantitativeReadout"],
 "data": [
  ["O=C(O)c1cc(C(=O)O)cc([N+](=O)[O-])c1", "chemical recovery", 79.2],
  ["Clc1cc(Cl)c(-c2c(Cl)ccc(Cl)c2Cl)cc1Cl", "chemical recovery", 56.9]
]}

Which measured chemical recovery value corresponds to COc1cc(Cc2cnc(N)nc2N)cc(OC)c1OC ? 39.2

Which measured chemical recovery value corresponds to O=C(NCc1ncc(C(F)(F)F)cc1Cl)c1c(Cl)cccc1Cl [Fluopicolide] ? 65.8

====

experiment: chemical recovery from spiked human plasma; higher = better extraction; conditions: pooled human plasma; extraction method: solvent precipitation (ACN + hexane)
endpoint: chemical recovery

Field: example entries. Status: answers known.
{"columns": ["molecule", "endpoint", "result"],
 "data": [
  ["CN1C(=O)CN=C(c2ccccc2)c2cc(Cl)ccc21", "chemical recovery", "85.2%"],
  ["Cc1cccc(C)c1N(Cn1cccn1)C(=O)C[S+]([O-])CC(=O)O (configuration not stated)", "chemical recovery", "81%"],
  ["CCCNCCOc1c(Cl)cc(Cl)cc1Cl", "chemical recovery", "71.2%"],
  ["CNC(=O)/C(=N/OC)c1ccccc1COc1cc(C)ccc1C", "chemical recovery", "72.7%"],
  ["CC(C)CC(C)(O)C#CC(C)(O)CC(C)C (configuration not stated)", "chemical recovery", "77.6%"],
  ["CSc1nnc(C(C)(C)C)c(=O)n1N", "chemical recovery", "71.8%"]
]}

# ---- query molecule ----
Which measured chemical recovery value corresponds to CNCCCN1c2ccccc2CCc2ccccc21 ? 62.7%

====

Known chemical recovery of a selection of compounds
test: chemical recovery from spiked human plasma; higher = better extraction; settings: pooled human plasma; extraction method: PES+SPE (3 d PDMS equilibration then HLB SPE)
# number only, unit % dropped from output

{"columns": ["compound", "chemical recovery / %"],
 "data": [
  ["O=C1Nc2ccc(Cl)cc2C(c2ccccc2Cl)=NC1O (stereo not given)", 36.5]
]}

Which measured chemical recovery value corresponds to CC(C)(C)c1cc([N+](=O)[O-])cc([N+](=O)[O-])c1O ? 48.5

====

experiment: chemical recovery from spiked human plasma; higher = better extraction; conditions: pooled human plasma; extraction method: SPE only (HLB 96-well)
Using chemical recovery as the sorting value, the categories are interval 1 = under 30%, interval 2 = from 30% up to 40%, interval 3 = 40% and over

{"columns": ["molecule", "groupLabel"],
 "data": [
  ["CC(C)OC(=O)Nc1cccc(Cl)c1", "interval 3"],
  ["CNC(=O)Oc1cccc2c1OC(C)(C)C2", "interval 3"],
  ["CC12CC3CC(C)(C1)CC(N)(C3)C2 [Memantine]", "interval 3"],
  ["CCCCC(CC)COP(=O)(O)OCC(CC)CCCC (centres undefined) [Bis(2-ethylhexyl)phosphate]", "interval 1"],
  ["CC(C)N(C(=O)CCl)c1ccccc1", "interval 1"],
  ["C=CCC1(C(C)CCC)C(=O)NC(=O)NC1=O (centres undefined)", "interval 2"],
  ["N#CCNC(=O)c1cnccc1C(F)(F)F", "interval 3"],
  ["O=S(=O)(O)CCC(F)(F)C(F)(F)C(F)(F)C(F)(F)C(F)(F)C(F)(F)C(F)(F)C(F)(F)F", "interval 2"],
  ["CC1(C)C(C=C(Cl)Cl)C1C(=O)OCc1cccc(Oc2ccccc2)c1 (centres undefined)", "interval 1"],
  ["CC(C)(Oc1ccc(CCNC(=O)c2ccc(Cl)cc2)cc1)C(=O)O [Bezafibrate]", "interval 3"]
]}

In plain terms, what class is O=C(O)C(F)(F)C(F)(F)C(F)(F)C(F)(F)C(F)(F)C(F)(F)F ? interval 1

In plain terms, what class is O=C(CC(C(=O)OC1CCCCC1)S(=O)(=O)O)OC1CCCCC1 (centres undefined) [Dicyclohexyl sulfosuccinate] ? interval 1

In plain terms, what class is N=C(Nc1ccccc1)Nc1ccccc1 ? interval 2

====

assay: chemical recovery into PDMS from spiked human plasma; higher = better extraction; settings: pooled human plasma; extraction method: PES with PDMS; equilibration time (d): 6
Known chemical recovery into PDMS of a selection of compounds
# number only, unit % dropped from output

Field: example entries. Status: answers known.
{"columns": ["compound", "chemical recovery into PDMS [%]"],
 "data": [
  ["CCNc1nc(NC(C)C)nc(SC)n1 [Ametryn]", 23.9],
  ["CCOC(=O)c1ccc(N)cc1 [Benzocain]", 26.3],
  ["Clc1cc(Cl)c(-c2cc(Cl)c(Cl)c(Cl)c2Cl)cc1Cl [PCB180]", 73.3],
  ["CC1(C)CC(=O)CC(C)(C)N1 [2,2,6,6-Tetramethyl-4 piperidone]", 0.677],
  ["Oc1cc(Cl)ccc1Oc1ccc(Cl)cc1Cl [Triclosan]", 22]
]}

Which measured chemical recovery into PDMS value corresponds to CC(=O)c1cc2c(cc1C)C(C)(C)C(C)CC2(C)C (centres undefined) [Tonalide] ? 55.1

Which measured chemical recovery into PDMS value corresponds to CCOC1Oc2ccc(OS(C)(=O)=O)cc2C1(C)C (centres undefined) [Ethofumesate] ? 44

Which measured chemical recovery into PDMS value corresponds to CC(=O)O[C@]1(C(C)=O)CC[C@H]2[C@@H]3C[C@H](C)C4=CC(=O)CC[C@]4(C)[C@H]3CC[C@@]21C [Medroxyprogesteroneacetate] ? 43.4

Which measured chemical recovery into PDMS value corresponds to CC(C)COP(=O)(OCC(C)C)OCC(C)C [Tri-isobutylphosphate] ? 39.9
